These entries and their values trace back to patent US20260193366A1.

Target: T1, cynomolgus monkey IL-4Rα (cynomolgus monkey, UniProt P24394 26-231 (human entry), limits assumed)
T1 construct: also called Cyno IL-4Rα; cyIL-4Rα
T1 chain: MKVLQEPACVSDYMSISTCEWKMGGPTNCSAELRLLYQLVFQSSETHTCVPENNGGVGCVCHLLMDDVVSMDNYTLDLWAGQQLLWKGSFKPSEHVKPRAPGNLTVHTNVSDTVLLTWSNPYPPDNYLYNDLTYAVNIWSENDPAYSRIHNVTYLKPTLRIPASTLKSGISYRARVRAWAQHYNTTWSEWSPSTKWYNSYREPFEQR
Assay: SPR, Carterra LSA;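 further: antibodies captured on an anti-human Fc sensor chip, antigen injected at several concentrations, association and dissociation rates fitted with a 1:1 Langmuir model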
reportedMetric: KD Relative to Dupilumab

>>> observedmeasurement("Construct 5 (mAb414) (antibody, IgG4, V domains shown, VH/VL only) VH: EVQLVESGGGLEQPGGSLRLSCAGSGFTFRDFAMTWVRQAPGKGLEWVSSISGSGDNIYYADSVKGRFTISRDNSKNTLYLQMNSLRAEDTAVYYCAKDRVSITIRPRYYGLDVWGQGTTVTVSS VL: DIVMTQSPLSLPVTPGEPASISCRSSQSLLYSIGKNYVDWYLQKSGQSPQLLIYLGNKRASGVPDRFSGSGSGTDFTLKISRVEAEDVGFYYCMQSLQTPYVFGQGTKLEIK")
0.18
>>> observedmeasurement("Construct 1 (mAb410) (antibody, IgG4, V domains shown, VH/VL only) VH: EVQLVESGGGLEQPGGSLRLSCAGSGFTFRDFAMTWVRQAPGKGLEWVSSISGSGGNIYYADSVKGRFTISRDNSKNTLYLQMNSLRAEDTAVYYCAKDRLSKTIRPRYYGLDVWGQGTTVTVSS VL: DIVMTQSPLSLPVTPGEPASISCRSSQSVLYSIGYNYVDWYLQKSGQSPQLLIYLGSKRASGVPDRFSGSGSGTDFTLKISRVEAEDVGFYYCMQSLDTPYTFGQGTKLEIK")
0.17
>>> observedmeasurement("Construct 34 (mAb459) (antibody, IgG4, V domains shown, VH/VL only) VH: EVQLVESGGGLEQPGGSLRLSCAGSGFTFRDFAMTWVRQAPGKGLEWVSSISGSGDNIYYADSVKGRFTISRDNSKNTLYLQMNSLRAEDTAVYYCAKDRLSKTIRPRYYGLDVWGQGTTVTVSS VL: DIVMTQSPLSLPVTPGEPASISCRSSQGLLYSIGYNYVDWYLQKSGQSPQLLIYLGNKRASGVPDRFSGSGSGTDFTLKISRVEAEDVGFYYCMQALDTPYTFGQGTKLEIK")
0.53
>>> observedmeasurement("Construct 2 (mAb411) (antibody, IgG4, V domains shown, VH/VL only) VH: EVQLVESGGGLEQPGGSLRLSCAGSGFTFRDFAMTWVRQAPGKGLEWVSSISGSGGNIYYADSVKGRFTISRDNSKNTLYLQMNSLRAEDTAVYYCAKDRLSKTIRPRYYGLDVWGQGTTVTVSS VL: DIVMTQSPLSLPVTPGEPASISCTASQSLLYSIGYNYVDWYLQKSGQSPQLLIYLGSKRASGVPDRFSGSGSGTDFTLKISRVEAEDVGFYYCMQALTTPYTFGQGTKLEIK")
0.1
>>> observedmeasurement("Construct 19 (mAb427) (antibody, IgG4, V domains shown, VH/VL only) VH: EVQLVESGGGLEQPGGSLRLSCAGSGFTFRTYAMTWVRQAPGKGLEWVSSISGSGDNTYYADSVKGRFTISRDNSKNTLYLQMNSLRAEDTAVYYCAKDRVSITIRPRYYGLDVWGQGTTVTVSS VL: DIVMTQSPLSLPVTPGEPASISCTSSQSLLYSIGYNYVDWYLQKSGQSPQLLIYLGNKRASGVPDRFSGSGSGTDFTLKISRVEAEDVGFYYCMQALGSPYTFGQGTKLEIK")
0.08
